# SYSTEM: human p38 kinase alpha (Homo sapiens, UniProt Q16539)
# Construct: GST (N, cleaved yes); made in house; host or cells: E. coli DH10B
# Sequence (Q16539 whole entry): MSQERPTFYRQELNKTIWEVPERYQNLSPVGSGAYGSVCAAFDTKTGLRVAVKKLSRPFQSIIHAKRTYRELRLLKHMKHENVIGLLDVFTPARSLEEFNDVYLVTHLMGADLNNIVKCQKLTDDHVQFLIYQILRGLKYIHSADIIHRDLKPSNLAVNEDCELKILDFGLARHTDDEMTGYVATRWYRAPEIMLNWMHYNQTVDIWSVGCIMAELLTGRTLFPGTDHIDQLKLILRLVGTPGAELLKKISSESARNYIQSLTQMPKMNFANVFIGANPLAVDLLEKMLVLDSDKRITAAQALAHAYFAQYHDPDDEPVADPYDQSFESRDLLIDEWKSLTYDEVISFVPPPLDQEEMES
# EXPERIMENT: p38 kinase in vitro assay, phosphorylation of biotinylated PHAS-I with 32P-ATP
# Assay type: biochemical
# REPORTED_CONDITIONS: in vitro P38-alpha kinase inhibition; read-out: P38 alpha kinase IC50
pIC50: −log10 of the molar value.
Returns one of fulfilled or not fulfilled; fulfilled when pIC50 is >= 6.

Examples from the recorded data:
>>> print(df.to_string())
                                   compound   answer_label
0  CC(NS(=O)(=O)c1cccs1)c1[nH]nc(-c2ccc(F)cc2)c1-c1ccncc1 (stereo not drawn)      fulfilled
1  CC(NC(=O)c1cccs1)c1[nH]nc(-c2ccc(F)cc2)c1-c1ccncc1 (stereo not drawn)      fulfilled
2  CNC(=O)CCC(NC(=O)c1ccccc1OC)c1[nH]nc(-c2ccc(F)cc2)c1-c1ccncc1 (stereo not drawn)  not fulfilled
3  O=S(=O)(NCCc1[nH]nc(-c2ccc(F)cc2)c1-c1ccncc1)c1ccc(Cl)s1      fulfilled
4  O=C(NC(Cc1ccccc1)c1[nH]nc(-c2ccc(F)cc2)c1-c1ccncc1)c1ccc(F)c(F)c1F (stereo not drawn) [Example B-0813]  not fulfilled

Asked: // inclusive: pIC50 at least 6? input: CC(NS(=O)(=O)c1cccc(Cl)c1)c1[nH]nc(-c2ccc(F)cc2)c1-c1ccncc1 (stereo not drawn)
Given back: fulfilled

Asked: // inclusive: pIC50 at least 6? input: O=C(NC(Cc1ccccc1)c1[nH]nc(-c2ccc(F)cc2)c1-c1ccncc1)c1ccc(I)cc1 (stereo not drawn) [Example B-0839]
Given back: not fulfilled

Asked: // inclusive: pIC50 at least 6? input: COc1ccc(OC)c(S(=O)(=O)NCCc2[nH]nc(-c3ccc(F)cc3)c2-c2ccncc2)c1
Given back: fulfilled

Asked: // inclusive: pIC50 at least 6? input: O=S(=O)(NC(Cc1ccccc1)c1[nH]nc(-c2ccc(F)cc2)c1-c1ccncc1)c1cccs1 (stereo not drawn) [Example B-0765]
Given back: fulfilled

Asked: // inclusive: pIC50 at least 6? input: O=C(NC(Cc1ccccc1)c1[nH]nc(-c2ccc(F)cc2)c1-c1ccncc1)C1CCCC1 (stereo not drawn) [Example B-0820]
Given back: not fulfilled

Asked: // inclusive: pIC50 at least 6? input: CC(NC(=O)NC(Cc1ccccc1)c1[nH]nc(-c2ccc(F)cc2)c1-c1ccncc1)c1ccccc1 (stereo not drawn) [Example B-0739]
Given back: not fulfilled

Asked: // inclusive: pIC50 at least 6? input: CC(NC(=O)c1cc(F)ccc1F)c1[nH]nc(-c2ccc(F)cc2)c1-c1ccncc1 (stereo not drawn)
Given back: fulfilled

Asked: // inclusive: pIC50 at least 6? input: CC(NC(=O)c1ccc(F)c(C(F)(F)F)c1)c1[nH]nc(-c2ccc(F)cc2)c1-c1ccncc1 (stereo not drawn)
Given back: not fulfilled

Asked: // inclusive: pIC50 at least 6? input: Cc1noc(C)c1S(=O)(=O)NCCc1[nH]nc(-c2ccc(F)cc2)c1-c1ccncc1
Given back: fulfilled

---

# SYSTEM: human p38 kinase alpha (Homo sapiens, UniProt Q16539)
# Construct: GST (N, cleaved yes); made in house; host or cells: E. coli DH10B
# EXPERIMENT: p38 kinase in vitro assay, phosphorylation of biotinylated PHAS-I with 32P-ATP
# Format: biochemical
# REPORTED_CONDITIONS: in vitro P38-alpha kinase inhibition; read-out: P38 alpha kinase IC50
# Experimental: The coding region of the human p38a cDNA was obtained by PCR-amplification from RNA isolated from the human monocyte cell line THP.1. […] Random primer, dNTP's and Superscript™ reagents were all purchased from Life-Technologies, Gaithersburg, Mass. The reaction was incubated at 42° C. for 1 hour. […]
pIC50: −log10 of the molar value.
Returns one of met or not met; met when pIC50 is >= 6.

Examples from the recorded data:
In [3]: df
Out[3]:
                                   molecule  answer_label
0  Cc1ccc(C(=O)NC(Cc2ccccc2)c2[nH]nc(-c3ccc(F)cc3)c2-c2ccncc2)cc1 (centres unmarked) [Example B-0818]       not met
1  O=C(NCCc1[nH]nc(-c2ccc(F)cc2)c1-c1ccncc1)c1cccc(C(F)(F)F)c1 [Example B-1123]       not met

Asked: // inclusive: pIC50 at least 6? input: O=S(=O)(C=Cc1ccccc1)NC(Cc1ccccc1)c1[nH]nc(-c2ccc(F)cc2)c1-c1ccncc1 (centres unmarked) [Example B-0755]
Given back: not met

Asked: // inclusive: pIC50 at least 6? input: O=C(NCCc1[nH]nc(-c2ccc(F)cc2)c1-c1ccncc1)c1cc(F)cc(C(F)(F)F)c1 [Example B-1141]
Given back: not met

Asked: // inclusive: pIC50 at least 6? input: CC(NC(=O)Nc1ccc(F)cc1)c1[nH]nc(-c2ccc(F)cc2)c1-c1ccncc1 (centres unmarked) [Example B-0583]
Given back: not met

Asked: // inclusive: pIC50 at least 6? input: O=C(NCCc1[nH]nc(-c2ccc(F)cc2)c1-c1ccncc1)c1ccc(Cl)cc1Cl [Example B-1144]
Given back: met
